assay: Pharmacokinetic profiles of patients on the extended dosing regimen (plasma, LCMS/MS, day 15); assay type: in vivo; settings: human, plasma, po, 50 mg, 50 mg BID oral, day 15, N=2; AUC0-12
readout_kind: AUC (µg·h/mL)

{"columns": ["smiles", "reading_unit", "data_value"],
 "data": [
  ["COc1ccc(S(=O)(=O)Nc2cccnc2Nc2ccc(O)cc2)cc1", "µg·h/mL", 16.4]
]}

---

experiment: Pharmacokinetic profiles of patients on the extended dosing regimen (plasma, LCMS/MS, day 15); assay type: in vivo; conditions: human, plasma, po, 75 mg, 75 mg BID oral, day 15, plasma, N=3

{"columns": ["smiles", "Cmax [ng/mL]"],
 "data": [
  ["COc1ccc(S(=O)(=O)Nc2cccnc2Nc2ccc(O)cc2)cc1", 3700]
]}
